Origin of measurements: the supplement of paper PMC7877785

test description: self-splicing fitness, log relative to wild type (ln ratio); higher = more splicing; Tetrahymena group I intron in knt gene, E. coli kanamycin selection, DiMSum; sequences stand for … in CUCUCU…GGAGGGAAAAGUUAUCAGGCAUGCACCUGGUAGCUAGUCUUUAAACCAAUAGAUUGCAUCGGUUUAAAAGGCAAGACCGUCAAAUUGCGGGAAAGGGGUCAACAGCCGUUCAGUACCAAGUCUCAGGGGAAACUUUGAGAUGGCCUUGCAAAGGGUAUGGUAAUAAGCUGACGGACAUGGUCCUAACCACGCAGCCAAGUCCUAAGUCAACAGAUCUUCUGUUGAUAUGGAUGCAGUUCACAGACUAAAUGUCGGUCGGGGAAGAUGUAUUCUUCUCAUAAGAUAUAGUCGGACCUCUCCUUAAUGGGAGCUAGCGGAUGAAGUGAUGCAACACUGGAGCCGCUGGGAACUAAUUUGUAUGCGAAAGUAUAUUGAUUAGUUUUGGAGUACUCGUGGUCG;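 note: selection with 25 µg/mL kanamycin versus none on LB agar overnight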
particulars: 37 °C
endpoint label: self-splicing fitness (ln)

In [3]: df
Out[3]:
       sequence_content  readout_value
0  GCGGAGCAAUAUUACGGCGG           -2.6
1  UUAGAGCAAUAUUACGUGGA           -1.6
2  AACCAGCAAUAUUACGCGCA       -0.00763
3  GGUGAGCAAUAUUACGAGAG          -2.38
4  AAUAAGCAAUAUUACGGUGU         -0.711
5  GCAAAGCAAUAUUACGUCCU          0.035
6  CUCGAGCAAUAUUACGUCGU          -1.88
7  CACGAGCAAUAUUACGCGUG          -2.97
8  GCAAAGCAAUAUUACGCCGA          -1.82

* * *

test description: self-splicing fitness, log relative to wild type (ln ratio); higher = more splicing; Tetrahymena group I intron in knt gene, E. coli kanamycin selection, DiMSum; sequences stand for … in CUCUCU…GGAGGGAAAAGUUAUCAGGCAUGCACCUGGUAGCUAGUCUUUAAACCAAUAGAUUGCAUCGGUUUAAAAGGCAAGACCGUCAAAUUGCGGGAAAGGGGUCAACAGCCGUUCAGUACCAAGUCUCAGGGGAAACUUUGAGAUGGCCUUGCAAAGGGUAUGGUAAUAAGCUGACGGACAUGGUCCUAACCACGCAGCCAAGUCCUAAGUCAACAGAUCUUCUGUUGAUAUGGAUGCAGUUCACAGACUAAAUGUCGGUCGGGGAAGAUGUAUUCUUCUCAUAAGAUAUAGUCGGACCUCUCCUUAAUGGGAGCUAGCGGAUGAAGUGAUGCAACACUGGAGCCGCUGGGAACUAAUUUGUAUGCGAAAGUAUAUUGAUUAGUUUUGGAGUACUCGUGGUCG
particulars: 30 °C
Recorded self-splicing fitness (ln), one value per entry.
endpoint label: self-splicing fitness (ln)

>>> df
        sequence_content  readout_value
 0  GGUUAGCAAUAUUACGAAAA          -2.05
 1  GCACAGCAAUAUUACGCAUG          -2.95
 2  GAGGAGCAAUAUUACGGAAA          -3.13
 3  AAAGAGCAAUAUUACGACAC          -2.67
 4  ACGUAGCAAUAUUACGAGAC          -2.37
 5  AAACAGCAAUAUUACGAACA          -1.78
 6  GUUCAGCAAUAUUACGGUCA          -1.42
 7  AACUAGCAAUAUUACGCCUC          -2.29
 8  GCAAAGCAAUAUUACGCAAG          -3.95
 9  CCCAAGCAAUAUUACGCCAU          -3.28
10  ACGCAGCAAUAUUACGAGUG          -2.14
11  AACCAGCAAUAUUACGCCGC           -4.1
12  CUACAGCAAUAUUACGUUUA          -3.39
13  AGCUAGCAAUAUUACGUCCG          -1.65
14  CGCCAGCAAUAUUACGGAUC          -1.24
15  AGGUAGCAAUAUUACGAUUA         -0.677
16  GGGCAGCAAUAUUACGAUUC         -0.524
17  CGGCAGCAAUAUUACGCCGA          -2.87
18  GGCGAGCAAUAUUACGUCAU          -2.45
19  AGGAAGCAAUAUUACGCGUU          -2.55
20  AAGCAGCAAUAUUACGUCUG          -4.47
21  CCCAAGCAAUAUUACGCUGG          -3.55
22  CCACAGCAAUAUUACGGUUU          -4.31
23  AUGAAGCAAUAUUACGUCAC          -2.97
24  GUUCAGCAAUAUUACGACGU       0.000808
25  UAUCAGCAAUAUUACGGAGG          -1.18
26  CGAGAGCAAUAUUACGGGAU          -2.56
27  UGAGAGCAAUAUUACGUUAU          -2.88
28  UACUAGCAAUAUUACGAGGA          -3.18
29  AACAAGCAAUAUUACGCCCG         -0.206
30  UCAGAGCAAUAUUACGGGAU          -3.39
31  AGCCAGCAAUAUUACGGACG          0.121
32  UGGGAGCAAUAUUACGACCU         -0.992
33  CAGUAGCAAUAUUACGGGGA           -3.9
34  GUGUAGCAAUAUUACGUCGA          -1.11
35  UCCGAGCAAUAUUACGCCGU          -2.21
36  GUCUAGCAAUAUUACGUAGG         -0.837
37  UACUAGCAAUAUUACGCCAG        -0.0426
38  CCGCAGCAAUAUUACGGAAG          -3.05
39  UCUUAGCAAUAUUACGAAUC          -3.32
40  CACUAGCAAUAUUACGUUUG          -2.29
41  CUGAAGCAAUAUUACGCUGU          -3.65

* * *

test description: self-splicing fitness, log relative to wild type (ln ratio); higher = more splicing; Tetrahymena group I intron in knt gene, E. coli kanamycin selection, DiMSum; sequences stand for … in CUCUCU…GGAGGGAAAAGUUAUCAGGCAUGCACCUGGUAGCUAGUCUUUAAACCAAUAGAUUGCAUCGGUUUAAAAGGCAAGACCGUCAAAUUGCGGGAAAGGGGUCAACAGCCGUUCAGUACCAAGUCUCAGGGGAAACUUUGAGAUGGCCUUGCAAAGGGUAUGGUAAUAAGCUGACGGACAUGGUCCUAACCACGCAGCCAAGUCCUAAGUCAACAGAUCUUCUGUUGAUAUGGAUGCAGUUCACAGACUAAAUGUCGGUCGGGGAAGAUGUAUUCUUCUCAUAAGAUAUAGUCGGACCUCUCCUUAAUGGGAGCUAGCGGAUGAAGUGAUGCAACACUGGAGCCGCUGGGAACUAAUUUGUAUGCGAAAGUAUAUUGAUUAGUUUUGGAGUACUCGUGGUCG
particulars: 37 °C
endpoint label: self-splicing fitness (ln)

In [3]: df
Out[3]:
       sequence_content              endpoint_label  readout_value
0  ACUCAGCAAUAUUACGCCGG  self-splicing fitness (ln)         -0.683
1  CAAAAGCAAUAUUACGGAUC  self-splicing fitness (ln)          -1.98
2  GGUAAGCAAUAUUACGCUAU  self-splicing fitness (ln)          -2.05
3  AGCCAGCAAUAUUACGUAGC  self-splicing fitness (ln)          -2.05

* * *

test description: self-splicing fitness, log relative to wild type (ln ratio); higher = more splicing; Tetrahymena group I intron in knt gene, E. coli kanamycin selection, DiMSum; sequences stand for … in CUCUCU…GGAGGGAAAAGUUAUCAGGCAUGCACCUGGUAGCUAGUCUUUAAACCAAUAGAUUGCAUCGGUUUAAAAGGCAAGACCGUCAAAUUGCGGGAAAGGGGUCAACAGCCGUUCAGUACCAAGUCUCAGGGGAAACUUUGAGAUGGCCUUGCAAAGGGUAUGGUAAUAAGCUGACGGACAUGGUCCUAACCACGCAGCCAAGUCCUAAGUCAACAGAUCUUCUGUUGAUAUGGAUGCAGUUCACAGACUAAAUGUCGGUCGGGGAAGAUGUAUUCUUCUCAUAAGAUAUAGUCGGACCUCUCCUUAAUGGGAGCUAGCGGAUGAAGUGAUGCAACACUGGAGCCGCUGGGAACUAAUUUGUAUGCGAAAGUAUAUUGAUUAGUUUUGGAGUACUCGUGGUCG
particulars: 30 °C
# binarize self-splicing fitness (ln): threshold -1 inclusive, high side Fulfilled, low side Not fulfilled

In [3]: df
Out[3]:
        sequence_content  class_assignment
 0  AAGAAGCAAUAUUACGACCG     Not fulfilled
 1  CGCUAGCAAUAUUACGAGAU     Not fulfilled
 2  GGUUAGCAAUAUUACGGCAU         Fulfilled
 3  UACAAGCAAUAUUACGAGGU     Not fulfilled
 4  UCUAAGCAAUAUUACGCCGA     Not fulfilled
 5  UUUGAGCAAUAUUACGGCCU     Not fulfilled
 6  CCUAAGCAAUAUUACGUAUC     Not fulfilled
 7  CAACAGCAAUAUUACGUUCG         Fulfilled
 8  UCCCAGCAAUAUUACGGAAC     Not fulfilled
 9  CACCAGCAAUAUUACGAGGG     Not fulfilled
10  CUUGAGCAAUAUUACGAGUU     Not fulfilled
11  GCGUAGCAAUAUUACGUGUU     Not fulfilled
12  UUCUAGCAAUAUUACGAUGA         Fulfilled
13  GGCAAGCAAUAUUACGGAAA     Not fulfilled
14  GACAAGCAAUAUUACGGGCA         Fulfilled
15  GGCGAGCAAUAUUACGUCGC     Not fulfilled
16  UUUCAGCAAUAUUACGUGCC     Not fulfilled
17  GGCUAGCAAUAUUACGCGUA         Fulfilled
18  CUCUAGCAAUAUUACGGUGC     Not fulfilled
